System: α7 integrin (LacZ reporter in α7+/LacZ myotubes)
Test: Myotube α7 integrin FDG assay (Burkin assay in myotubes, 96-well)
Assay type: cell-based, mouse
Details: 10 uM, myotubes
Reported values of Burkin Assay in Myotubes (signal relative to DMSO) for individual entries
Answer as a number with no unit attached.

Molecule	Data value
CC(=O)c1cccc(NC(=O)C2CCCN(S(=O)(=O)c3cccc4nonc34)C2)c1 (stereo not drawn) [MLS000937079-01]	0.8882
COCCN1C=C(C(=O)OC)C(c2ccccc2Cl)C(C(=O)OC)=C1 [MLS000718886-01]	0.9981

Now consider the entry below.
Per the records, this molecule ( CC(C(=O)Nc1ccc(C#N)cc1)N(C)CC(=O)Nc1cccc(F)c1 (stereo not drawn) [MLS001033255-01] ) has Burkin Assay in Myotubes (signal relative to DMSO) equal to 0.997

###

Test system: α7 integrin (LacZ reporter in α7LacZ+/− myoblasts)
Assay: qHTS of the LOPAC library and MLSMR (online screen, α7LacZ+/− myoblasts)
Conditions: Mus musculus, Myoblast, 48 h, read-out: Activity at 1.530 uM [%] **
Quantity measured: activation at 1.53 µM (%)
// note: answer is a bare numeric in %

Compound	Result unit	activation at 1.53 µM
O=C(NCCc1ccccc1)C1CCC(=O)N1C1CCCC1 (stereo not drawn)	%	-11.7
O=C(Nc1cc(Br)ccc1O)C1CC(c2ccccc2Cl)=NO1 (stereo not drawn)	%	3.14

Now consider a different compound.
Value of measured activation at 1.53 µM for the entry CCOc1ccc2oc(C(=O)OCC(=O)NC(=O)NC)c(C)c2c1 : 0

###

Test system: β-galactosidase in CMV-LacZ C2C12 myotubes
Assay: CMV-LacZ secondary screen in C2C12 myotubes (β-Gal stabilizing assay)
Type: cell-based, mouse
Conditions: 10 uM; C2C12 CMV-LacZ myotubes; fold relative to DMSO
// No strictly below 1 in CMV-LACZ in Myotubes, signal relative to DMSO; Yes otherwise

// known answers, use as guide
Molecule	Experimental system	Category label
O=C(Nc1ccccc1OC(=O)c1ccc(Cl)cc1)c1ccc(Cl)cc1	β-galactosidase in CMV-LacZ C2C12 myotubes	No
CCOc1ccccc1Nc1cc2n(c(=O)n1)CCc1cc(OC)c(OC)cc1-2	β-galactosidase in CMV-LacZ C2C12 myotubes	Yes
CC(=O)Nc1ccc(-n2c(C)nc(=O)c(-c3ccccc3)c2C)cc1	β-galactosidase in CMV-LacZ C2C12 myotubes	No
Cc1cc(C)nc(NC(=O)c2ccc(Cl)cc2Cl)n1	β-galactosidase in CMV-LacZ C2C12 myotubes	No
COC(=O)Cn1c(=O)c2c(nc3n2CC(C)CN3Cc2ccccc2)n(C)c1=O (stereo not drawn)	β-galactosidase in CMV-LacZ C2C12 myotubes	No
CCCOc1nc(SCCC)nc2c1cnn2-c1ccccc1	β-galactosidase in CMV-LacZ C2C12 myotubes	Yes
Nc1ncnc(NCc2ccccc2)c1[N+](=O)[O-]	β-galactosidase in CMV-LacZ C2C12 myotubes	No
OC1(c2ccccc2)C/C(=N\n2cnnc2)C=C1c1ccccc1 (stereo not drawn)	β-galactosidase in CMV-LacZ C2C12 myotubes	No
Cc1ccc(NCc2nnc(SCC(=O)Nc3nnc(C)s3)n2C)cc1	β-galactosidase in CMV-LacZ C2C12 myotubes	No
Cc1cccc(NC(=O)c2cc3ccccc3oc2=O)c1	β-galactosidase in CMV-LacZ C2C12 myotubes	No

Confirm if CMV-LACZ in Myotubes, signal relative to DMSO reported for the molecule Cc1ccccc1-n1c(Cc2cccs2)n[nH]c1=S is 1 or above.
No

For this molecule, is measured CMV-LACZ in Myotubes, signal relative to DMSO 1 or higher? COc1ccc(CNC(=O)C2CCCN(S(=O)(=O)c3c(C)noc3/C=C/N(C)C)C2)cc1 (stereo not drawn)
No

Given the entry CC(O)CNc1nc2c(c(=O)n(Cc3ccc(Br)cc3)c(=O)n2C)n1C (stereo not drawn) , answer whether its CMV-LACZ in Myotubes, signal relative to DMSO meets or surpasses 1.
No
